Target: T1, human 5T4-His protein (human, UniProt Q13641 32-355)
T1 construct: also called recombinant 5T4 protein (human 5T4-his tag); human 5T4 protein; not shown: His tag
T1 sequence (looked up): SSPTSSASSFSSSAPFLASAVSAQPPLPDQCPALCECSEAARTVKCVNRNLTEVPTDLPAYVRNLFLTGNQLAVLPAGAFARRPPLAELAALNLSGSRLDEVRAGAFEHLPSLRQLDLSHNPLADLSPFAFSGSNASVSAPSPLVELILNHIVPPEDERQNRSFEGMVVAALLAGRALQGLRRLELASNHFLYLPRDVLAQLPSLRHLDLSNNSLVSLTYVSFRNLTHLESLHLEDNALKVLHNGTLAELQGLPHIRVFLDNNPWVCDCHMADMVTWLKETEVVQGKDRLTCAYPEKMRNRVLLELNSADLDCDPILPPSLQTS
Experiment: SPR Biacore, Protein A capture
Description: The binding of the chimeric mAbs from these clones against recombinant 5T4 protein (human 5T4-his tag) was tested with Biacore using a capture method. The mAbs were captured using Protein A chip. A serial dilution of human 5T4-his tag protein was injected over captured antibody for 2-3 mins at a flow rate of 30 μl/min. The antigen was allowed to dissociate for 360-1000 s. All the experiments were carried out on a Biacore T200. Data analysis was carried out using Biacore T200 evaluation software.
measureName: kon (M⁻¹ s⁻¹)

binder	unitAbbreviation	readoutNumber
113H5 chimeric antibody (antibody, V domains shown, chimeric mAb) VH: DVQLQESGPGLVKPSQSLSLTCSVTGYSITSGYYWNWIRQFPGNKLEWMGYINSDGSNNYNPSLKNRISITRDTSKNQFFLKLNSVTTEDTATYYCAREEYDYWFAYWGQGTLVTVSA VL: DIVMTQSQKFMSTSVGDRVSVTCKASQNVGTNVAWYQQKPGQSPKALIYSASNRYSGVPDRFTGSGFGTDFTLTISNVQSEDLTEYFCQQYNSYPYTFGGGTNLEIK	M⁻¹ s⁻¹	348000
389G2 chimeric antibody (antibody, V domains shown, chimeric mAb) VH: QVQLQQPGTELVKPGASVKLSCKASGYTFTSYWMHWVKQRPEQGLEWIGNINPSNGNTNYNERFKSKATLTVDKSSSTAYMQLSSLTSEDSTVYYCARGGWDFDYWGQGTTLTVSS VL: QVVLTQSPAIMSASPGEKVTMTCSASSSVRYIHWYQQRSGTSPKRWIYDTSKLTSGVPVRFSGSGSGTSFSLTISSMEAEDAATYYCQQWTSKPPWTFGGGTKLEIK	M⁻¹ s⁻¹	282000
449H9 chimeric antibody (antibody, V domains shown, chimeric mAb) VH: QVQLQQSGAELVRPGSSVRISCKASGYAFSNYWMNWVKQRPGQGLEWIGQIYPGDGDTNYNGKFKNKATLTTDKSSSTAYMQLSSLTSEDSAVYFCARHYDYPYYYAMDYWGQGTSVTVSS VL: DIQMTQSPSSLSASLGERVSLTCRASQDIGIALTWLQQEPDGTIKRLIYATSSLDSGVPKRFSGSRSGSDYTLTISSLESEDFVDYYCLQYIISPYTFGGGTKLEIK	M⁻¹ s⁻¹	301000
